Species on record: Rattus norvegicus
Experiment: Open TG-GATES - Regimen: Single
Format: toxicity, organism-based, Sprague-Dawley
Design: regimen Single, gender Male, age 6 weeks
Details: in vivo, po, 0 mg/kg, 24 h, tissue Plasma, route gavage, dose level Control
RECORDED ENDPOINT: log10 DBIL (log10 of the value in mg/dL)
Lab note - DBIL converted to log10 from values in mg/dL.

CN1C(=O)CN=C(c2ccccc2)c2cc(Cl)ccc21 [DIAZEPAM] = -2.22
O=C(CCCN1CCC(O)(c2ccc(Cl)cc2)CC1)c1ccc(F)cc1 [HALOPERIDOL] = -1.55
NNC(=O)c1ccncc1 [ISONIAZID] = -1.24
CN(C)CCN(Cc1cccs1)c1ccccn1 = -2.70
CN(C)CCCN1c2ccccc2CCc2ccc(Cl)cc21 [CLOMIPRAMINE] = -2.00

Next, consider the following compound.
The recorded log10 DBIL for entry COC1=CC(=O)C[C@@H](C)[C@]12Oc1c(Cl)c(OC)cc(OC)c1C2=O [GRISEOFULVIN] equals -1.00

###

Organism: Rattus norvegicus
Assay: Open TG-GATES - Regimen: Single
Format: toxicity, organism-based, Sprague-Dawley
Set-up: regimen Single, gender Male, age 6 weeks
Conditions: in vivo, po, 0 mg/kg, 6 h, tissue Blood, route gavage, dose level Control
Recorded RBC, one value per entry.
Kindly answer with a numeric value in x10_4/ul, unit omitted.

CC/C(=C(\c1ccccc1)c1ccc(OCCN(C)C)cc1)c1ccccc1 = 607
C[C@@H]1C[C@H]2[C@@H]3CCC4=CC(=O)C=C[C@]4(C)[C@@]3(F)[C@@H](O)C[C@]2(C)[C@@]1(O)C(=O)CO = 627.4
NC(N)=Nc1nc(CSCCC(N)=NS(N)(=O)=O)cs1 = 610.2
COC1=CC(=O)C[C@@H](C)[C@]12Oc1c(Cl)c(OC)cc(OC)c1C2=O = 662.4

The reported value for `CC1=C(/C=C/C(C)=C/C=C/C(C)=C/CO)C(C)(C)CCC1` in terms of RBC is 628.2

For reference, reported RBC for `COc1cc2c(c(OC)c1OC)-c1ccc(OC)c(=O)cc1[C@@H](NC(C)=O)CC2` stands at 609.8

The molecule listed as CCOc1ccc(NC(=O)CC(C)O)cc1 (configuration not stated) has a reported RBC of 619.6

`CN(C)CCCN1c2ccccc2CCc2ccccc21` yielded RBC of 614.8

Briefly, RBC measured for CCCNC(=O)NS(=O)(=O)c1ccc(Cl)cc1 [CHLORPROPAMIDE] : 630.6

For COc1ccc2[nH]c([S+]([O-])Cc3ncc(C)c(OC)c3C)nc2c1 (configuration not stated) the molecule record lists RBC as 634.2

Data point: `O=C(CCCN1CCC(O)(c2ccc(Cl)cc2)CC1)c1ccc(F)cc1` ; RBC = 625.8

Summary for this molecule, CCOC(=O)CCC(=O)O[C@H]1[C@H](O[C@@H]2[C@@H](C)[C@H](O[C@H]3C[C@@](C)(OC)[C@@H](O)[C@H](C)O3)[C@@H](C)C(=O)O[C@H](CC)[C@@](C)(O)[C@H](O)[C@@H](C)C(=O)[C@H](C)C[C@@]2(C)O)O[C@H](C)C[C@@H]1N(C)C [ERYTHROMYCIN ETHYLSUCCINATE] : RBC is 651

Notebook: CC(C)OC(=O)C(C)(C)Oc1ccc(C(=O)c2ccc(Cl)cc2)cc1 [FENOFIBRATE] , RBC read as 599.2

Record summary for `NNC(=O)c1ccncc1` : reported RBC = 618.4

Noted for `CN1C(=O)CN=C(c2ccccc2)c2cc(Cl)ccc21` : its RBC reads 647

Reported RBC ( `Cc1ccc(C)c(OCCCC(C)(C)C(=O)O)c1` ) = 649.8

For this molecule ( `CN(C)CCN(Cc1cccs1)c1ccccn1` ), measured RBC is 603

The origin of these recorded values is ChEMBL document CHEMBL3885861.
